// reported OD450 per item
- system-under-test: T1, human CD22-ECD-His protein (human, UniProt P20273 20-687)
- T1 construct: Made in house in HEK293E; also called hCD22-ECD-His; recombinant human CD22-ECD His protein; not shown: His tag
- T1 sequence: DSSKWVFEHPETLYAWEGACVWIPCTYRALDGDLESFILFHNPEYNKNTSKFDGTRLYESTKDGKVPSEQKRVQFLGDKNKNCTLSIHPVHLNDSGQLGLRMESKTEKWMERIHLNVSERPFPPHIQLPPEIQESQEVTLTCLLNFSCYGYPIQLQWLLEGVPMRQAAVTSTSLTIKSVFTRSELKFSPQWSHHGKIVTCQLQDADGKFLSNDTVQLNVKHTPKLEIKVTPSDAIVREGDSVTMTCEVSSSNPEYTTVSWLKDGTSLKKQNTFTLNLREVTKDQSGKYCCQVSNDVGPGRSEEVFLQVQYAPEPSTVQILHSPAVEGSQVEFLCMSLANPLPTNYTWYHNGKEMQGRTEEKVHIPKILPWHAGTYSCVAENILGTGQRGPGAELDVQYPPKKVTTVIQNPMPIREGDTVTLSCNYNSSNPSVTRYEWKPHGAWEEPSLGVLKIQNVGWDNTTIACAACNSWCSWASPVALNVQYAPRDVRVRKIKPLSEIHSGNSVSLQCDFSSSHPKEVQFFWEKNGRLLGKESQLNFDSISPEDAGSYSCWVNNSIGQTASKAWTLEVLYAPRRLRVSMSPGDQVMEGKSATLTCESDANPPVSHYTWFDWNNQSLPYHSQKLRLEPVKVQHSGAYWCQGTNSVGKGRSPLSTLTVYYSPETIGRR
- test: ELISA, Ab 0.001 nM
The reply should be a number in OD450, with the unit left off.

Look over these answered cases.
binder="F1.267.9 (antibody, human IgG1, kappa, V domains shown, Human-murine chimeric IgG1, kappa) VH: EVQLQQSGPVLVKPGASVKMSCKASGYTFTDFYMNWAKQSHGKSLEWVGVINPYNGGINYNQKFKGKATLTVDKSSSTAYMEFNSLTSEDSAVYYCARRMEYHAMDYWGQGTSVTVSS VL: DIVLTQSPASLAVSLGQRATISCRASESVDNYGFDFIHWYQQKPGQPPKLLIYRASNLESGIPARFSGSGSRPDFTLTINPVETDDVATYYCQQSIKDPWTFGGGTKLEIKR" parameter_measured=OD450 endpoint_unit=OD450 value_observed=0.34
binder="F1.161.7 (antibody, human IgG1, kappa, V domains shown, Human-murine chimeric IgG1, kappa) VH: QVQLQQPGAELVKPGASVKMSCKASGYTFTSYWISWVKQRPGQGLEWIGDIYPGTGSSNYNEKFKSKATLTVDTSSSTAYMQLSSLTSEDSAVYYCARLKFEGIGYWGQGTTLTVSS VL: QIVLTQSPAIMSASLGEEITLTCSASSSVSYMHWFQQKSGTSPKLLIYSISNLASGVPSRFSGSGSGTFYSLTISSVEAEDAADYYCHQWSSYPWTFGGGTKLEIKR" parameter_measured=OD450 endpoint_unit=OD450 value_observed=1.22

Ask | State, in one line, measured OD450 of F2.99.1 (antibody, human IgG1, lambda, V domains shown, Human-murine chimeric IgG1, lambda) VH: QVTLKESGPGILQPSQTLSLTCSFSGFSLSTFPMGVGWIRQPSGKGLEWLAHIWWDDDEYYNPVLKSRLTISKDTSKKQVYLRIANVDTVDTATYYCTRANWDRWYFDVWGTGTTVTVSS VL: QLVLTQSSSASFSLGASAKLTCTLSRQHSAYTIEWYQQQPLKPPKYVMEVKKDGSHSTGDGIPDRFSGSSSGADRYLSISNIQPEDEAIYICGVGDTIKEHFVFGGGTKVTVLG
Reply | 0.51
